Recorded log10 Ki, one value per entry.
# testedTarget: UniProt:P21452
# assayDetails: Binding affinity against recombinant human tachykinin receptor 2 in CHO cells using [3H]-NKA as radioligand
experimentalEndpoint: log10 Ki (log10 of the value in nM)

>  <smiles>
CCN(C/C(=N\OC)[C@H](CCN1CCC(n2c(=O)n(CC(=O)NCCOC)c3ccccc32)CC1)c1ccc(Cl)c(Cl)c1)C(=O)c1cc(Cl)cc(Cl)c1

>  <experimentalEndpoint>
log10 Ki

>  <quantitativeResult>
0.61

$$$$
>  <smiles>
CO/N=C(\CN(C)C(=O)c1cc(Cl)cc(Cl)c1)[C@H](CCN1CCC(n2c(=O)n(CC(=O)OC)c3ccccc32)CC1)c1ccc(Cl)c(Cl)c1

>  <experimentalEndpoint>
log10 Ki

>  <quantitativeResult>
0.26

$$$$
>  <smiles>
CO/N=C(\CN(C)C(=O)c1cc(Cl)cc(Cl)c1)[C@H](CCN1CCC(n2c(=O)n(CC(=O)O)c3ccccc32)CC1)c1ccc(Cl)c(Cl)c1

>  <experimentalEndpoint>
log10 Ki

>  <quantitativeResult>
0.23

$$$$
>  <smiles>
CCN(C/C(=N\OC)[C@H](CCN1CCC(n2c(=O)[nH]c3ccccc32)CC1)c1ccc(Cl)c(Cl)c1)C(=O)c1cc(Cl)cc(Cl)c1

>  <experimentalEndpoint>
log10 Ki

>  <quantitativeResult>
0.41

$$$$
>  <smiles>
CNC(=O)C[C@H]1CCCN(C2CCN(CC[C@@H](/C(CN(C)C(=O)c3cc(Cl)cc(Cl)c3)=N/OC)c3ccc(Cl)c(Cl)c3)CC2)C1=O

>  <experimentalEndpoint>
log10 Ki

>  <quantitativeResult>
-0.40

$$$$

====

Recorded Ki, one value per entry.
# testedTarget: Substance-P receptor (Homo sapiens, UniProt P25103)
# Sequence (P25103 whole entry): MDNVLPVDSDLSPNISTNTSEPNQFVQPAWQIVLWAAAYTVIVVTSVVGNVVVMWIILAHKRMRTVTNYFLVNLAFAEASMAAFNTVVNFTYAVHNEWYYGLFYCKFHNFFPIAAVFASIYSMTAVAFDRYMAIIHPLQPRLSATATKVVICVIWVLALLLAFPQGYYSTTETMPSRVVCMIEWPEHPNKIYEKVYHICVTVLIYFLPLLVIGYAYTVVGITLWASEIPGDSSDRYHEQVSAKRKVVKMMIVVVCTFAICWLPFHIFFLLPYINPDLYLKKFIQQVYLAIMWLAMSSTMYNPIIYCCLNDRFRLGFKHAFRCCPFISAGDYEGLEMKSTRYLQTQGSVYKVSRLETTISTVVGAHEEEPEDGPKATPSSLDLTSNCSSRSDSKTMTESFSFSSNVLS
# assayDetails: Binding affinity against recombinant human tachykinin receptor 1 in CHO cells using [3H]-Sar SP as radioligand

>  <smiles>
CO/N=C(\CN(C)C(=O)c1cc(Cl)cc(Cl)c1)[C@H](CCN1CCC(n2c(=O)n(CC(=O)O)c3ccccc32)CC1)c1ccc(Cl)c(Cl)c1

>  <Ki [nM]>
1.3

$$$$
>  <smiles>
CO/N=C(\CN(C)C(=O)c1cc(Cl)cc(Cl)c1)[C@H](CCN1CCC(N2CCCN(Cc3ccccn3)C2=O)CC1)c1ccc(Cl)c(Cl)c1

>  <Ki [nM]>
0.7

$$$$
>  <smiles>
CO/N=C(\CN(CCF)C(=O)c1cc(Cl)cc(Cl)c1)[C@H](CCN1CCC(n2c(O)nc3ccccc32)CC1)c1ccc(Cl)c(Cl)c1

>  <Ki [nM]>
3.2

$$$$
>  <smiles>
CO/N=C(\CN(C)C(=O)c1cc(Cl)cc(Cl)c1)[C@H](CCN1CCC(N2CCCN(CCNS(C)(=O)=O)C2=O)CC1)c1ccc(Cl)c(Cl)c1

>  <Ki [nM]>
0.6

$$$$
>  <smiles>
CCN(C/C(=N\OC)[C@H](CCN1CCC(n2c(=O)n(CC(N)=O)c3ccccc32)CC1)c1ccc(Cl)c(Cl)c1)C(=O)c1cc(Cl)cc(Cl)c1

>  <Ki [nM]>
2.4

$$$$
>  <smiles>
CCN(C/C(=N\OC)[C@H](CCN1CCC(n2c(=O)n(CC#N)c3ccccc32)CC1)c1ccc(Cl)c(Cl)c1)C(=O)c1cc(Cl)cc(Cl)c1

>  <Ki [nM]>
2.3

$$$$

====

Recorded pKi, one value per entry.
# testedTarget: UniProt P29371
# Sequence (P29371 whole entry): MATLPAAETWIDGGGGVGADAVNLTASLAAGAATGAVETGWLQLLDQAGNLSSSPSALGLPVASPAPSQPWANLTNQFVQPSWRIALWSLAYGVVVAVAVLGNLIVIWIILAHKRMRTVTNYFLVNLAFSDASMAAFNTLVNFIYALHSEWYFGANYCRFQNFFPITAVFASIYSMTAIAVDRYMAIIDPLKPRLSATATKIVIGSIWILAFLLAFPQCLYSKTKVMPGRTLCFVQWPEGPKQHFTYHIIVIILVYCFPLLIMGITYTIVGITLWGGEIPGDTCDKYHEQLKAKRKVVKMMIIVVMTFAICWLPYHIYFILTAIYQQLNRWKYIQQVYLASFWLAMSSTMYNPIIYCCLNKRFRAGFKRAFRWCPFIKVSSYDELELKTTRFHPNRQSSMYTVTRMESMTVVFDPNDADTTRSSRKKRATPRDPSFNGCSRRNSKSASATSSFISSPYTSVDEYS
# assayDetails: Binding affinity against recombinant human tachykinin receptor 3 in CHO cells using [125I][MePhe]-NKB as radioligand
pKi: −log10 of the molar value.

>  <smiles>
CO/N=C(\CN(C)C(=O)c1cc(Cl)cc(Cl)c1)[C@H](CCN1CCC(N2CCCN(CC(=O)OCc3ccccc3)C2=O)CC1)c1ccc(Cl)c(Cl)c1

>  <testedTarget>
UniProt P29371

>  <pKi>
7.93

$$$$
>  <smiles>
CO/N=C(\CN(C)C(=O)c1cc(Cl)cc(Cl)c1)[C@H](CCN1CCC(N2CCCN(C(C)(C)C(N)=O)C2=O)CC1)c1ccc(Cl)c(Cl)c1

>  <testedTarget>
UniProt P29371

>  <pKi>
9.52

$$$$
>  <smiles>
CO/N=C(\CN(C)C(=O)c1cc(Cl)cc(Cl)c1)[C@H](CCN1CCC(N2CCCN(Cc3ccoc3)C2=O)CC1)c1ccc(Cl)c(Cl)c1

>  <testedTarget>
UniProt P29371

>  <pKi>
8.66

$$$$

====

# testedTarget: Substance-K receptor (Homo sapiens, UniProt P21452)
# Sequence (P21452 whole entry): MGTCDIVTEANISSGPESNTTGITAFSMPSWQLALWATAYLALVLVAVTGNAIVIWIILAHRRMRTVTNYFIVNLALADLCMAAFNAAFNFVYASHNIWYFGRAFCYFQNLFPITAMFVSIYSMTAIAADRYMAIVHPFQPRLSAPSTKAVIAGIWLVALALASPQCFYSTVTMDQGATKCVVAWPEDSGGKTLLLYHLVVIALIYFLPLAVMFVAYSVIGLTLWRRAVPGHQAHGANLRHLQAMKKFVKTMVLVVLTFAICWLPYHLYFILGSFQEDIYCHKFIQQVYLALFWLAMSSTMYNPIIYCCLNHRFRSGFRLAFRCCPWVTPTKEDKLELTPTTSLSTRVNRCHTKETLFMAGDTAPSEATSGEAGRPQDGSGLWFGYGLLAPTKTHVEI
# assayDetails: Binding affinity against recombinant human tachykinin receptor 2 in CHO cells using [3H]-NKA as radioligand
# Format: cell-based
pKi: −log10 of the molar value.
Tick MET if pKi is 9 or greater. Tick NOT MET if pKi is less than 9.

>  <smiles>
CO/N=C(\CN(C)C(=O)c1cc(Cl)cc(Cl)c1)[C@H](CCN1CCC(N2CCCN(c3ccccn3)C2=O)CC1)c1ccc(Cl)c(Cl)c1

>  <assignedLabel>
MET

$$$$
>  <smiles>
CCN(C/C(=N\OC)[C@H](CCN1CCC(n2c(=O)n(CC(=O)O)c3ccccc32)CC1)c1ccc(Cl)c(Cl)c1)C(=O)c1cc(Cl)cc(Cl)c1

>  <assignedLabel>
NOT MET

$$$$
>  <smiles>
CO/N=C(\CN(C)C(=O)c1cc(Cl)cc(Cl)c1)[C@H](CCN1CCC(N2CCCN(CCNS(C)(=O)=O)C2=O)CC1)c1ccc(Cl)c(Cl)c1

>  <assignedLabel>
MET

$$$$
>  <smiles>
CO/N=C(\CN(C)C(=O)c1cc(Cl)cc(Cl)c1)[C@H](CCN1CCC(N2CCCN(C(C)(C)C(N)=O)C2=O)CC1)c1ccc(Cl)c(Cl)c1

>  <assignedLabel>
MET

$$$$
>  <smiles>
CO/N=C(\CN(CCF)C(=O)c1cc(Cl)cc(Cl)c1)[C@H](CCN1CCC(n2c(=O)n(CC(=O)O)c3ccccc32)CC1)c1ccc(Cl)c(Cl)c1

>  <assignedLabel>
NOT MET

$$$$
>  <smiles>
CO/N=C(\CN(CCF)C(=O)c1cc(Cl)cc(Cl)c1)[C@H](CCN1CCC(n2c(O)nc3ccccc32)CC1)c1ccc(Cl)c(Cl)c1

>  <assignedLabel>
NOT MET

$$$$

====

# testedTarget: Substance-P receptor (Homo sapiens, UniProt P25103)
# assayDetails: Binding affinity against recombinant human tachykinin receptor 1 in CHO cells using [3H]-Sar SP as radioligand
Recorded Ki, one value per entry.
experimentalEndpoint: Ki (nM)

>  <smiles>
CCN(C/C(=N\OC)[C@H](CCN1CCC(n2c(=O)n(CC(=O)NCCOC)c3ccccc32)CC1)c1ccc(Cl)c(Cl)c1)C(=O)c1cc(Cl)cc(Cl)c1

>  <experimentalEndpoint>
Ki

>  <unitString>
nM

>  <quantitativeResult>
1.9

$$$$
>  <smiles>
CCNC(=O)Cn1c(=O)n(C2CCN(CC[C@@H](/C(CN(CC)C(=O)c3cc(Cl)cc(Cl)c3)=N/OC)c3ccc(Cl)c(Cl)c3)CC2)c2ccccc21

>  <experimentalEndpoint>
Ki

>  <unitString>
nM

>  <quantitativeResult>
3

$$$$
>  <smiles>
CCN(C/C(=N\OC)[C@H](CCN1CCC(n2c(=O)n(Cc3ccccn3)c3ccccc32)CC1)c1ccc(Cl)c(Cl)c1)C(=O)c1cc(Cl)cc(Cl)c1

>  <experimentalEndpoint>
Ki

>  <unitString>
nM

>  <quantitativeResult>
2.7

$$$$
>  <smiles>
CO/N=C(\CN(CCF)C(=O)c1cc(Cl)cc(Cl)c1)[C@H](CCN1CCC(n2c(=O)n(CC(=O)O)c3ccccc32)CC1)c1ccc(Cl)c(Cl)c1

>  <experimentalEndpoint>
Ki

>  <unitString>
nM

>  <quantitativeResult>
1.2

$$$$
>  <smiles>
CO/N=C(\CN(C)C(=O)c1cc(Cl)cc(Cl)c1)[C@H](CCN1CCC(n2c(=O)n(CC(=O)OC)c3ccccc32)CC1)c1ccc(Cl)c(Cl)c1

>  <experimentalEndpoint>
Ki

>  <unitString>
nM

>  <quantitativeResult>
1.3

$$$$
>  <smiles>
CO/N=C(\CN(C)C(=O)c1cc(Cl)cc(Cl)c1)[C@H](CCN1CCC(N2CCCN(C(C)C)C2=O)CC1)c1ccc(Cl)c(Cl)c1

>  <experimentalEndpoint>
Ki

>  <unitString>
nM

>  <quantitativeResult>
0.9

$$$$
